meta.source: ChEMBL document CHEMBL6121036

assay: Effect on CDC42EP3 level in human MV4-11 cells assessed as fold change at 100 nM measured after 4 hrs; type: functional
Endpoint Label: fold change (FC)
Reply briefly: the number, and no unit.

Entry Cc1sc2c(c1C)C(c1ccc(Cl)cc1)=N[C@@H](CC(=O)N1CCC(CN3CCN(c4ccc5c(c4)oc(=O)n5C4CCC(=O)NC4=O)CC3)CC1)c1nnc(C)n1-2 (some centres undefined) ; fold change (FC) = -1.17

* * *

assay: Effect on BRD4 level in human MV4-11 cells assessed as fold change at 100 nM measured after 4 hrs; assay type: functional
Entries and their fold change (FC)
Reply briefly: the number, and no unit.

Worked examples follow.
Entry Cc1sc2c(c1C)C(c1ccc(Cl)cc1)=N[C@@H](CC(=O)N1CCC(CN3CCN(c4ccc5c(c4)oc(=O)n5C4CCC(=O)NC4=O)CC3)CC1)c1nnc(C)n1-2 (stereo partly drawn) ; fold change (FC) = -3.75

Entry Cc1sc2c(c1C)C(c1ccc(Cl)cc1)=N[C@@H](CC(=O)N1CCC(CN3CCN(c4ccc(C5CCC(=O)NC5=O)cc4)CC3)CC1)c1nnc(C)n1-2 (stereo partly drawn) ; fold change (FC) = -3.85

Query compound follows.
Entry Cc1sc2c(c1C)C(c1ccc(Cl)cc1)=N[C@@H](CC(=O)N1CCC(CN3CCN(c4ccc5c(c4)n(C)c(=O)n5C4CCC(=O)NC4=O)CC3)CC1)c1nnc(C)n1-2 (stereo partly drawn) ; fold change (FC) = -3.81

* * *

Entries and their solubility kinetic
experiment: Kinetic aqueous solubility of the compound at pH 7.4; assay type: physicochemical; details: read-out: Kinetic_solubility
Express the result in µM but write the number alone.

Worked examples follow.
Entry Cc1sc2c(c1C)C(c1ccc(Cl)cc1)=N[C@@H](CC(=O)N1CCN(CC3CCN(c4ccc(C5CCC(=O)NC5=O)cc4)CC3)CC1)c1nnc(C)n1-2 (stereo partly drawn) ; solubility kinetic = 64.5

Entry Cc1sc2c(c1C)C(c1ccc(Cl)cc1)=N[C@@H](CC(=O)N1CCC(CN3CCN(c4ccc(NC5CCC(=O)NC5=O)c(F)c4)CC3)CC1)c1nnc(C)n1-2 (stereo partly drawn) ; solubility kinetic = 71.1

Query compound follows.
Entry Cc1sc2c(c1C)C(c1ccc(Cl)cc1)=N[C@@H](CC(=O)N1CCC(CN3CCN(c4ccc(N5CCC(=O)NC5=O)cc4)CC3)CC1)c1nnc(C)n1-2 ; solubility kinetic = 72.5

* * *

assay: Metabolic stability in mouse liver microsomes assessed as half life; assay type: ADME, Microsome; details: liver microsomes
Entries and their half-life
Express the result in min but write the number alone.

Entry Cc1sc2c(c1C)C(c1ccc(Cl)cc1)=N[C@@H](CC(=O)N1CCC(CN3CCN(c4ccc5c(c4)CN(C4CCC(=O)NC4=O)C5=O)CC3)CC1)c1nnc(C)n1-2 (stereo partly drawn) ; half-life = 45

Entry Cc1sc2c(c1C)C(c1ccc(Cl)cc1)=N[C@@H](CC(=O)NCCCCCNC(=O)COc1ccc(C3CCC(=O)NC3=O)cc1)c1nnc(C)n1-2 (stereo partly drawn) ; half-life = 2.4

Query compound follows.
Entry Cc1sc2c(c1C)C(c1ccc(Cl)cc1)=N[C@@H](CC(=O)N1CCN(c3cccc(C4CCC(=O)NC4=O)c3)CC1)c1nnc(C)n1-2 (stereo partly drawn) ; half-life = 17.4

* * *

target: Protein cereblon/Bromodomain-containing protein 4 (Homo sapiens, UniProt O60885+Q96SW2); assay: PROTAC activity at CRBN/Hibit-tagged BRD4 (unknown origin) expressed in HEK293 cells co-expressing LgBiT assessed as degradation of BRD4 incubated for 24 hrs by […] glo-max assay relative to control; format: cell-based
Sequence (Q96SW2 whole entry, looked up, other chains not shown): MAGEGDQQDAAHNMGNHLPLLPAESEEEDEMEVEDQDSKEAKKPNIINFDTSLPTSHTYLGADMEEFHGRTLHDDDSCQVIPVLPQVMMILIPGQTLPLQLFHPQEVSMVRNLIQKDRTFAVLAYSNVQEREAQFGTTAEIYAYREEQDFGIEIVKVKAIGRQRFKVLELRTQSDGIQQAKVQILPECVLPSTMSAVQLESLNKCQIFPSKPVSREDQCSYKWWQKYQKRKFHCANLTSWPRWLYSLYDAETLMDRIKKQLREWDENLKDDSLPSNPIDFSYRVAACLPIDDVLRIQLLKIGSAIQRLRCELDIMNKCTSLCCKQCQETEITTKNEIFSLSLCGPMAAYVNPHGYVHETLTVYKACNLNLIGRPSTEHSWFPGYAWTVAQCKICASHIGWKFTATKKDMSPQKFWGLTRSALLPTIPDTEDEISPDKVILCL
Endpoint Label: Emax
The reply should consist of the numeric value with the unit placed after it.

Worked examples follow.
Here Cc1sc2c(c1C)C(c1ccc(Cl)cc1)=N[C@@H](CC(=O)N1CCC(CN3CCN(c4ccc5c(c4)CN(C4CCC(=O)NC4=O)C5=O)CC3)CC1)c1nnc(C)n1-2 (stereo partly specified) was tested on Protein cereblon/Bromodomain-containing protein 4 (Homo sapiens, UniProt O60885+Q96SW2), and its Emax came to 96.6%

Here Cc1sc2c(c1C)C(c1ccc(Cl)cc1)=N[C@@H](CC(=O)N1CCN(c3cccc(C4CCC(=O)NC4=O)c3)CC1)c1nnc(C)n1-2 (stereo partly specified) was tested on Protein cereblon/Bromodomain-containing protein 4 (Homo sapiens, UniProt O60885+Q96SW2), and its Emax came to 12.3%

Here Cc1sc2c(c1C)C(c1ccc(Cl)cc1)=N[C@@H](CC(=O)N1CCC(CN3CCN(c4ccc(NC5CCC(=O)NC5=O)cc4)CC3)CC1)c1nnc(C)n1-2 (stereo partly specified) was tested on Protein cereblon/Bromodomain-containing protein 4 (Homo sapiens, UniProt O60885+Q96SW2), and its Emax came to 34.9%

Here Cc1sc2c(c1C)C(c1ccc(Cl)cc1)=N[C@@H](CC(=O)N1CCC(CN3CCN(c4ccc5c(c4)C(=O)N(C4CCC(=O)NC4=O)C5=O)CC3)CC1)c1nnc(C)n1-2 (stereo partly specified) was tested on Protein cereblon/Bromodomain-containing protein 4 (Homo sapiens, UniProt O60885+Q96SW2), and its Emax came to 95.5%

Others:
Here Cc1sc2c(c1C)C(c1ccc(Cl)cc1)=N[C@@H](CC(=O)NCCc1ccc(C3CCC(=O)NC3=O)cc1)c1nnc(C)n1-2 (stereo partly specified) was tested on Protein cereblon/Bromodomain-containing protein 4 (Homo sapiens, UniProt O60885+Q96SW2), and its Emax came to 98%

Here Cc1sc2c(c1C)C(c1ccc(Cl)cc1)=N[C@@H](CC(=O)N1CCC(CN3CCN(c4cc5c(cc4F)C(=O)N(C4CCC(=O)NC4=O)C5=O)CC3)CC1)c1nnc(C)n1-2 (stereo partly specified) was tested on Protein cereblon/Bromodomain-containing protein 4 (Homo sapiens, UniProt O60885+Q96SW2), and its Emax came to 88.6%
